PROTOCOL_DETAILS: Inhibitory constant determined against Norepinephrine transporter
READOUT_KIND: Ki

Documented Ki of COc1ccccc1S[C@@H](c1ccccc1)[C@@H]1CNCCO1 (stereo in doubt; form 2) : 24.6 nM

Documented Ki of COc1ccccc1S[C@@H](c1ccccc1)[C@@H]1CNCCO1 (stereo in doubt; 14) : 10.7 nM

Documented Ki of Cc1ccc(S[C@@H](c2ccccc2)[C@@H]2CNCCO2)cc1 : 364 nM

Documented Ki of Cc1cccc(S[C@@H](c2ccccc2)[C@@H]2CNCCO2)c1 : 109 nM

Documented Ki of c1ccc(S[C@@H](c2ccccc2)[C@@H]2CNCCO2)cc1 : 17.6 nM

Documented Ki of COc1ccccc1S[C@@H](c1ccccc1)[C@@H]1CNCCO1 (stereo in doubt; form 1) : 1.7 nM

Documented Ki of Cc1ccccc1S[C@@H](c1ccccc1)[C@@H]1CNCCO1 : 8.3 nM
